# credit: PubChem BioAssay (NCI)

# System: HOP-62 NSCLC
# procedure-text: NCI tumour cell line growth inhibition, 48 h; in the data active = GI50 below about 0.43 µM; inactive = the rest
Result category, one only: active, inactive

CCOC(=O)Oc1c(OC)cc(C(=O)NC2CCc3cc(OC)c(OC)c(OC)c3-c3ccc(SC)c(=O)cc32)cc1OC (stereo not given)	active
CC(=O)O.CC(=O)O.CC(=O)O.CC(=O)O.CC(=O)O.CC(=O)O.O.[Ti].[Ti]	inactive
O=S(=O)(Nc1cc(F)cc(Cl)c1)c1ccc(-c2cnc(C3CC3)o2)cc1	inactive

Query string: How did this test come out for `Cc1ccc(Cl)cc1Nc1nc(C(F)(F)F)ccc1C(=O)N1CCN(c2ccc(F)cc2)CC1` ?
Result string: inactive

Query string: How did this test come out for `O=C(c1ccccc1)c1cc(Cl)ccc1OCCCCN1CCN(CCCCOc2ccc(Cl)cc2C(=O)c2ccccc2)CC1` ?
Result string: inactive
